test system: PPARg:RXRa 90nM:30nM, anti-RXR (NR concentration 90 nM, RXRa partner concentration 30 nM); test: PBM binding z-score (relative to random genomic background probes); higher = stronger binding; sequences stand for … in GC…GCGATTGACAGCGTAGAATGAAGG
readoutType: PBM binding z-score
API note: the answer field is a bare number with no unit suffix.

*Q* Would you mind telling me what PBM binding z-score value was observed for `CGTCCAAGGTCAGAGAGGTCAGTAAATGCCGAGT` ?
*A* 2.7

*Q* Would you mind telling me what PBM binding z-score value was observed for `TCTTGTAGATCAGCAGGTTACGAAAGCTGGCCAA` ?
*A* 1.87

*Q* Would you mind telling me what PBM binding z-score value was observed for `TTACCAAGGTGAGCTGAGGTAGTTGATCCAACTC` ?
*A* -0.391

*Q* Would you mind telling me what PBM binding z-score value was observed for `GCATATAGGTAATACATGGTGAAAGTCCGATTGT` ?
*A* 0.476

*Q* Would you mind telling me what PBM binding z-score value was observed for `CCTCGGAGGACAGAAGGTCATAGCTGTCCGCTTT` ?
*A* 0.915

*Q* Would you mind telling me what PBM binding z-score value was observed for `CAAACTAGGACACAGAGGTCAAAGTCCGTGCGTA` ?
*A* 5.73

*Q* Would you mind telling me what PBM binding z-score value was observed for `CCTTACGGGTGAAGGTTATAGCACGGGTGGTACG` ?
*A* 0.958

*Q* Would you mind telling me what PBM binding z-score value was observed for `ACAGACAGGTGAGTGATGGTAACTCAGCTGGACG` ?
*A* -0.212

*Q* Would you mind telling me what PBM binding z-score value was observed for `CTCGAATGGTCGTGCTCAGGTGAGTATACCAAAC` ?
*A* -0.372

*Q* Would you mind telling me what PBM binding z-score value was observed for `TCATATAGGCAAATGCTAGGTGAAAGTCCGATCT` ?
*A* 2.14

*Q* Would you mind telling me what PBM binding z-score value was observed for `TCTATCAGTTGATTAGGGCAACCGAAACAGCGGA` ?
*A* 2.54

*Q* Would you mind telling me what PBM binding z-score value was observed for `CCAGACAGGTGAAAGGTAACTCATTCTGGTACGC` ?
*A* 6.34

*Q* Would you mind telling me what PBM binding z-score value was observed for `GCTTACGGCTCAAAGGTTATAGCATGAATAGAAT` ?
*A* 3.1

*Q* Would you mind telling me what PBM binding z-score value was observed for `ACTAGTTGGTCAGATGAGGTCACACACAATTCGG` ?
*A* 1.63

*Q* Would you mind telling me what PBM binding z-score value was observed for `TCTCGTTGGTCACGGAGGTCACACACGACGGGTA` ?
*A* 3.47

*Q* Would you mind telling me what PBM binding z-score value was observed for `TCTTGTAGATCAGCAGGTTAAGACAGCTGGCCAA` ?
*A* 2.02

*Q* Would you mind telling me what PBM binding z-score value was observed for `CTACCAAGGCGAACAAGGTCGTTGATTACTATTC` ?
*A* -0.247

*Q* Would you mind telling me what PBM binding z-score value was observed for `TCTAGCAGGCCAGAGGGTCACTGAAGAGGTACGG` ?
*A* 2.4

*Q* Would you mind telling me what PBM binding z-score value was observed for `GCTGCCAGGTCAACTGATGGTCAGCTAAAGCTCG` ?
*A* 1.61

*Q* Would you mind telling me what PBM binding z-score value was observed for `TCATCTAGGTAAACAGGTGAAAGTCCGTAAGTTA` ?
*A* 3.86

*Q* Would you mind telling me what PBM binding z-score value was observed for `CCTCGGAGGACAGAATGTCAGAGCTGTCCGCTTT` ?
*A* -1.09

*Q* Would you mind telling me what PBM binding z-score value was observed for `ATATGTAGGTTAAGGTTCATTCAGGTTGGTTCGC` ?
*A* 10.9

*Q* Would you mind telling me what PBM binding z-score value was observed for `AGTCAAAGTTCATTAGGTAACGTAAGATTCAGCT` ?
*A* 5.54

*Q* Would you mind telling me what PBM binding z-score value was observed for `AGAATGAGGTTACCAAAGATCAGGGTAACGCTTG` ?
*A* 2.54

*Q* Would you mind telling me what PBM binding z-score value was observed for `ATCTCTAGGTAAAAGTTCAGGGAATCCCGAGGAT` ?
*A* 8.27

*Q* Would you mind telling me what PBM binding z-score value was observed for `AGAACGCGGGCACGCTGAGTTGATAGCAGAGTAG` ?
*A* -0.727

Attribution: the supplement of paper PMC6555819
